target: full-length proMMP9(1-707) activation by catalytic MMP3 (Homo sapiens, UniProt P14780, R574P); construct: MMP3: E. coli; test: proMMP9/MMP3 P126 Activation Assay
Sequence (P14780 20-707 R574P): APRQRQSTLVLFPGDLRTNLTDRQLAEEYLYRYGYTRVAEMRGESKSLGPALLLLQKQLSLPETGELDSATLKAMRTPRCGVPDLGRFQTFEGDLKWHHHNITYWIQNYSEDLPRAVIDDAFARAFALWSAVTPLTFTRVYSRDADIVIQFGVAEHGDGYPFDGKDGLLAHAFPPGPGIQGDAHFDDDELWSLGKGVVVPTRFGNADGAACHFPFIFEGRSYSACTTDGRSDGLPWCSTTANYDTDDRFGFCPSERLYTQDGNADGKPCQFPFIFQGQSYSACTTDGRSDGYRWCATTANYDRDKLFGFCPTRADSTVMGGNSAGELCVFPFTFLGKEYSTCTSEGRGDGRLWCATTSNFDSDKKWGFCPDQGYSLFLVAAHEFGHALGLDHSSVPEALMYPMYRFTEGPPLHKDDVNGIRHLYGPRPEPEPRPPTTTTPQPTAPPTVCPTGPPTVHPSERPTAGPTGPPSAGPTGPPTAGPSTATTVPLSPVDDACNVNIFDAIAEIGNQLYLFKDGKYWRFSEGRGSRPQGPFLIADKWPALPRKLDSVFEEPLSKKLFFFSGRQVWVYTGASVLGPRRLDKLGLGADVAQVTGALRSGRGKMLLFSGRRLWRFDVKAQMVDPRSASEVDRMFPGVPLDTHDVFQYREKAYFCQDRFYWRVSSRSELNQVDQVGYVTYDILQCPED

| Smiles code | IC50 / µM |
| --- | --- |
| CC(C)Oc1ccc(C(N)=O)cc1Nc1nc2c(ccc3nc(C(=O)N4CCN(C)CC4)[nH]c32)s1 | 0.71 |
| COc1ccccc1Nc1nc2c(ccc3ncn(C)c32)s1 | 1.4 |
| CCOc1ccccc1Nc1nc2c(ccc3sc(N)nc32)s1 | 1.4 |

* * *

target: proMMP9(20-445;ΔFnII) (SEQ ID NO:6) (Homo sapiens, UniProt P14780, DEL216-390); construct: start methionine (N); assay: ThermoFluor binding assay with proMMP9(20-445;ΔFnII)
Sequence (P14780 with tags, fused parts or gaps DEL216-390): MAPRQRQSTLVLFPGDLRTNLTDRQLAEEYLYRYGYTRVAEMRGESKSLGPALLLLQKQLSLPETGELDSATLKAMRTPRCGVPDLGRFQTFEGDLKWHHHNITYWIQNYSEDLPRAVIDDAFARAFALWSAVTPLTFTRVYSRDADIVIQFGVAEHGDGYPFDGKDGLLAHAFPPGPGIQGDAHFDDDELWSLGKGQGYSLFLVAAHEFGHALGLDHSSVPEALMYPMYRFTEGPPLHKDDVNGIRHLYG
pKd: −log10 of the molar value.
Label criterion met for high-side pKd (at or above 6) and criterion not met for low-side pKd (below it).

| Smiles code | Assigned label |
| --- | --- |
| Cc1nc2c3nc(Nc4cnccc4OC(C)C)sc3ccc2n1C | criterion met |
| CC(C)Oc1ccc(S(N)(=O)=O)cc1Nc1nc2c(ccc3ncn(CC(F)(F)F)c32)s1 | criterion met |
| COc1ccc(S(C)(=O)=O)cc1Nc1nc2c(ccc3ncn(C)c32)s1 | criterion not met |
| CCn1c(C)nc2ccc3sc(Nc4cc(F)ccc4OC)nc3c21 | criterion not met |
| Cn1cnc2c3nc(Nc4ccc(C#N)cc4OC(F)(F)F)sc3ccc21 | criterion not met |
| NS(=O)(=O)c1ccc(OC(F)(F)F)c(Nc2nc3c(ccc4cnccc43)s2)c1 | criterion not met |
| COc1ccccc1Nc1nc2c(ccc3[nH]c(NC(C)=O)nc32)s1 | criterion not met |
| COc1ccc(NC(C)=O)cc1Nc1nc2c(ccc3c2ncn3C)s1 | criterion not met |
